System: Klebsiella aerogenes DSM 30053
Measurement Protocol: fold change of Cadaverine concentration vs plate DMSO controls (fold change (ratio)); higher = more amine produced, active = hit call of the paper (significant change in both replicates, either direction)
Condition Details: incubation time: 27 h, anaerobic, 37 °C
Counter-ions that a name gives are not always drawn.
fold change of Cadaverine concentration for assorted compounds
Quick one: just the number, no unit, thanks!

O=C1CC2(CCCC2)CC(=O)N1CCCCN1CCN(c2ncccn2)CC1 [Buspirone hydrochloride] (20 µM); 0.99
CCOC(=O)C(C)(C)Oc1ccc(Cl)cc1 [Clofibrate] (20 µM); 0.996
N#Cc1cc(NC(=O)C(=O)O)c(Cl)c(NC(=O)C(=O)O)c1 [Lodoxamide] (20 µM); 0.997
CCc1ccc(C(=O)C(C)CN2CCCCC2)cc1 (stereo not drawn) [Eperisone Hydrochloride] (20 µM); 0.991
CCC(C)n1ncn(-c2ccc(N3CCN(c4ccc(OCC5COC(Cn6cncn6)(c6ccc(Cl)cc6Cl)O5)cc4)CC3)cc2)c1=O (stereo not drawn) [Itraconazole] (20 µM); 0.995

GET /values?readout=fold change of Cadaverine concentration&item= CCCN(CCC)C(=O)C(CCC(=O)O)NC(=O)c1ccccc1 (stereo not drawn) [Proglumide] (20 µM) 1.01

Oc1ccccc1O [Catechol] (20 µM) ? 0.978

CCCNC(C)C(=O)Nc1ccccc1C (stereo not drawn) [Prilocaine hydrochloride] (20 µM) ? 0.988

* * *

Test system: Clostridium sporogenes DSM 1664
Measurement Protocol: growth (OD595) fold change vs plate DMSO controls (fold change (ratio)); higher = more growth
Condition Details: incubation time: 27 h, anaerobic, 37 °C
Where a name gives a salt, the structure may show the parent alone.
growth for assorted compounds
Quick one: just the number, no unit, thanks!

CN(C)CCCSC(=N)N [Dimaprit dihydrochloride] (20 µM); 1.04
CN1CCC[C@@H]1CCO[C@](C)(c1ccccc1)c1ccc(Cl)cc1 [Clemastine fumarate] (20 µM); 1.2
O=C(c1ccccc1)c1ccc2n1CCC2C(=O)O (configuration not stated) [Ketorolac tromethamine] (20 µM); 0.909
CCOC(=O)c1ccc(OC(=O)CCCCCNC(=N)N)cc1 [Gabexate mesilate] (20 µM); 1.07
CCCCc1ncc(/C=C(\Cc2cccs2)C(=O)O)n1Cc1ccc(C(=O)O)cc1 [Eprosartan mesylate] (20 µM); 1.06
CC1=NN(c2ccccc2)C(=O)C1 [Edaravone] (20 µM); 0.889
C[C@H](CCC(=O)O)[C@H]1CC[C@H]2[C@@H]3[C@H](O)C[C@@H]4C[C@H](O)CC[C@]4(C)[C@H]3CC[C@]12C [Chenodiol] (20 µM); 1.06
NC(=O)NC1NC(=O)NC1=O (configuration not stated) [Allantoin] (20 µM); 1.05
C=CCc1ccccc1OCC(O)CNC(C)C (configuration not stated) [Alprenolol hydrochloride] (20 µM); 0.992
Cc1ccccc1N1C(=O)c2cc(S(N)(=O)=O)c(Cl)cc2NC1C (configuration not stated) [Metolazone] (20 µM); 1.14

Would you kindly look at the next entry?
GET /values?readout=growth&item= CCOC(=O)[C@H](CCc1ccccc1)N[C@@H](C)C(=O)N(CC(=O)O)C1Cc2ccccc2C1 [Delapril Hydrochloride] (20 µM) 1.16

* * *

Test system: Escherichia coli IAI1
Measurement Protocol: growth (OD595) fold change vs plate DMSO controls (fold change (ratio)); higher = more growth
Condition Details: incubation time: 27 h, anaerobic, 37 °C
Counter-ions that a name gives are not always drawn.
growth for assorted molecules
Quick one: just the number, no unit, thanks!

Known growth results, listed for orientation:
CC[C@H]1OC(=O)[C@H](C)[C@@H](O[C@H]2C[C@@](C)(OC)[C@@H](O)[C@H](C)O2)[C@H](C)[C@@H](O[C@@H]2O[C@H](C)C[C@H](N(C)C)[C@H]2O)[C@](C)(O)C[C@@H](C)[C@@H]2N[C@@H](COCCOC)O[C@H]([C@H]2C)[C@]1(C)O [Dirithromycin] (20 µM); 0.961
CCCOc1cc(N)ccc1C(=O)OCCN(CC)CC [Propoxycaine hydrochloride] (20 µM); 1.01

Would you kindly look at the next entry?
GET /values?readout=growth&item= CC[N+](C)(CC)CCC[n+]1c(-c2ccccc2)c2cc(N)ccc2c2ccc(N)cc21 [Propidium iodide] (20 µM) 1.07

* * *

Tested on: Klebsiella aerogenes DSM 30053
Measurement Protocol: fold change of Histamine concentration vs plate DMSO controls (fold change (ratio)); higher = more amine produced, active = hit call of the paper (significant change in both replicates, either direction)
Condition Details: incubation time: 27 h, anaerobic, 37 °C
Structures can show the parent of a compound that is named as a salt.
fold change of Histamine concentration for assorted compounds
Quick one: just the number, no unit, thanks!

CCCCCCCN(CC)CCCC(O)c1ccc(NS(C)(=O)=O)cc1 (stereo not given) [Ibutilide fumarate] (20 µM); 0.925
CCc1ccc(C(=O)C(C)CN2CCCCC2)cc1 (stereo not given) [Eperisone Hydrochloride] (20 µM); 0.995
CC(=O)NC[C@H]1CN(c2ccc(N3CCOCC3)c(F)c2)C(=O)O1 [Linezolid] (20 µM); 0.819
CC(C)(C)NCC(O)CSc1nc(-c2ccc(C(N)=O)s2)cs1 (stereo not given) [Arotinolol hydrochloride] (20 µM); 1.01
CC/C(=C(\c1ccccc1)c1ccc(OCCN(C)C)cc1)c1ccccc1 [Tamoxifen citrate] (20 µM); 0.918
C=CCOC(Cn1ccnc1)c1ccc(Cl)cc1Cl (stereo not given) (20 µM); 0.976

GET /values?readout=fold change of Histamine concentration&item= CN(CCCCCCCCCCN(C)C(=O)Oc1cccc([N+](C)(C)C)c1)C(=O)Oc1cccc([N+](C)(C)C)c1 [Demecarium bromide] (20 µM) 0.986

CN(C)CCCN1c2ccccc2[S+]([O-])c2ccc(Cl)cc21 (stereo not given) [Chlorpromazine Sulfoxide] (20 µM) ? 1.04

CC(C)(C)C(=O)C(Oc1ccc(Cl)cc1)n1ccnc1 (stereo not given) [Climbazole] (20 µM) ? 0.96

Cc1ccc(S(=O)(=O)NC(=O)NN2CCCCCC2)cc1 [Tolazamide] (20 µM) ? 0.975

Cc1cc(-c2ccccc2)nnc1NCCN1CCOCC1 [Minaprine dihydrochloride] (20 µM) ? 0.939

* * *

System: Clostridium sporogenes DSM 1664
Measurement Protocol: growth (OD595) fold change vs plate DMSO controls (fold change (ratio)); higher = more growth
Condition Details: incubation time: 27 h, anaerobic, 37 °C
Where a name gives a salt, the structure may show the parent alone.
Readout Type: growth
Quick one: just the number, no unit, thanks!

CC(C)(C)NCC(O)CSc1nc(-c2ccc(C(N)=O)s2)cs1 (stereo not drawn) [Arotinolol hydrochloride] (20 µM); 1.07

What is its growth for Clostridium sporogenes DSM 1664? Entry: CC(C(=O)O)c1ccc(C(=O)c2ccccc2)s1 (stereo not drawn) [Tiaprofenic acid] (20 µM) 0.955

C[C@]12C=CC(=O)C=C1CC[C@@H]1[C@@H]2C(=O)C[C@@]2(C)[C@H]1CC[C@]2(O)C(=O)CO [Prednisone] (20 µM) ? 1.04

CN(C)C/C=C(/c1ccc(Br)cc1)c1cccnc1 [Zimelidine dihydrochloride monohydrate] (20 µM) ? 0.928

COc1cc(N)cn[n+]1-c1ccccc1 [Amezinium metilsulfate] (20 µM) ? 1.05

CC[N+](CC)(CC)CCOc1cccc(OCC[N+](CC)(CC)CC)c1OCC[N+](CC)(CC)CC [Gallamine triethiodide] (20 µM) ? 1.09

C=CCOC(Cn1ccnc1)c1ccc(Cl)cc1Cl (stereo not drawn) [Enilconazole] (20 µM) ? 1.05

CN1CC(O)c2cc(N=NC(N)=O)c(O)cc21 (stereo not drawn) [Carbazochrome] (20 µM) ? 0.927

* * *

System: Klebsiella aerogenes DSM 30053
Measurement Protocol: fold change of Histamine concentration vs plate DMSO controls (fold change (ratio)); higher = more amine produced, active = hit call of the paper (significant change in both replicates, either direction)
Condition Details: incubation time: 27 h, anaerobic, 37 °C
Counter-ions that a name gives are not always drawn.
Readout Type: fold change of Histamine concentration
Quick one: just the number, no unit, thanks!

CCN(CC)CCCC(C)Nc1c2ccc(Cl)cc2nc2ccc(OC)cc12 (stereo not given) [Quinacrine dihydrochloride hydrate] (20 µM); 1.03

GET /values?readout=fold change of Histamine concentration&item= c1ccc(CC2=NCCN2)cc1 [Tolazoline hydrochloride] (20 µM) 1.07

CC(=O)CC(c1ccccc1)c1c(O)c2ccccc2oc1=O (stereo not given) [Warfarin] (20 µM) ? 1

O=C1OCCN1/N=C/c1ccc([N+](=O)[O-])o1 [Furazolidone] (20 µM) ? 0.991

Clc1ccc(COC(Cn2ccnc2)c2ccc(Cl)cc2Cl)cc1 (stereo not given) [Econazole nitrate] (20 µM) ? 0.83

* * *

System: Ruminococcus gnavus DSM 108212
Measurement Protocol: growth (OD595) fold change vs plate DMSO controls (fold change (ratio)); higher = more growth
Condition Details: incubation time: 27 h, anaerobic, 37 °C
Where a name gives a salt, the structure may show the parent alone.
Readout Type: growth
Quick one: just the number, no unit, thanks!

GET /values?readout=growth&item= O=C(CCCN1CC=C(n2c(=O)[nH]c3ccccc32)CC1)c1ccc(F)cc1 [Droperidol] (20 µM) 0.835

COc1ccc(C2CNC(=O)C2)cc1OC1CCCC1 (stereo not given) [Rolipram] (20 µM) ? 0.936

O=S(=O)(O)c1cc(O)ccc1O [Ethamsylate diethylammonium salt] (20 µM) ? 0.997

CC(=O)N[C@@H](CC(=O)O)C(=O)N[C@@H](CCC(=O)O)C(=O)O [Spaglumic acid] (20 µM) ? 1.18

CCCOC(=O)NCCCN(C)C (20 µM) ? 1.17
